Values from ChEMBL document CHEMBL3045396

system: Lepidium sativum; assay: Phytohormonal activity against Lepidium sativum assessed as inhibition of seed germination at 100 to 1000 uM after 2 days relative to control; format: functional, organism-based
Activity calls are given as the source filed them. The calls are words filed in the database; no cut-off is given here.
Outcomes: active, inactive

1) CC/C=C\C[C@@H]1C(=O)CC[C@@H]1CC(=O)OC    active
2) CC/C=C\C[C@H]1C(=O)CC[C@@H]1CC(=O)OC (racemic)    active
3) CC/C=C\C[C@@H]1[C@@H](CC(=O)OC)CC[C@H]1O    inactive
4) CC/C=C\C[C@@H]1[C@@H](CC(=O)OC)CC[C@@H]1O    inactive
5) CC/C=C\C[C@H]1[C@@H](CC(=O)OC)CC[C@H]1O    active
6) CC/C=C\C[C@H]1[C@@H](CC(=O)OC)CC[C@@H]1O    active
